target: T1, VLP2 (virus-like particles of AAV2) (AAV2, UniProt P03135 1-735; P03135 1-598; P03135 1-533); assay: ELISA on VLP2; A450 after pH 3.0 66.1°C 15 min / 25°C
T1 construct: Empty AAV2 capsid; background says about 60 protein molecules, VP1:VP2:VP3 = 1:1:10; Immobilised on the ELISA plate
T1 sequence (P03135 whole entry, chain 1 of 3): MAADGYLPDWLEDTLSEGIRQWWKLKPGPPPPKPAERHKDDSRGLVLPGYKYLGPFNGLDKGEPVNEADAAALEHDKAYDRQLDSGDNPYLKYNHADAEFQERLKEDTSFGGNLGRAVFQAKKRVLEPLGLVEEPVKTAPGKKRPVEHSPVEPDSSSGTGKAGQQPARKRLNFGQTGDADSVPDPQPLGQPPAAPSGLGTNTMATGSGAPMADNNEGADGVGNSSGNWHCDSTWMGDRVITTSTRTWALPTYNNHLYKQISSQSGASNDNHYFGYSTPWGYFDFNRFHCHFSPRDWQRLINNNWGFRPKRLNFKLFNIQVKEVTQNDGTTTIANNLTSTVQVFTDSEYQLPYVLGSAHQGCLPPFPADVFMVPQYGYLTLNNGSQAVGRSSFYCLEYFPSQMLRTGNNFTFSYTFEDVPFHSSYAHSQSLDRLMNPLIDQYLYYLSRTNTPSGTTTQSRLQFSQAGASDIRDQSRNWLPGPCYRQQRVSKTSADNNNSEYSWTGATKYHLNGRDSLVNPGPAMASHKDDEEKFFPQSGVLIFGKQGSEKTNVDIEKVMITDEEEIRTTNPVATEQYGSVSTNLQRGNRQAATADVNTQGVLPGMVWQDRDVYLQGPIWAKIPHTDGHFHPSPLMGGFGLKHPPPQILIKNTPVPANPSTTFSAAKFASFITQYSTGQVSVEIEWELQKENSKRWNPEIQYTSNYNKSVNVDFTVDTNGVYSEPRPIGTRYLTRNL
T1 sequence (P03135 139-735, tags left off, chain 2 of 3): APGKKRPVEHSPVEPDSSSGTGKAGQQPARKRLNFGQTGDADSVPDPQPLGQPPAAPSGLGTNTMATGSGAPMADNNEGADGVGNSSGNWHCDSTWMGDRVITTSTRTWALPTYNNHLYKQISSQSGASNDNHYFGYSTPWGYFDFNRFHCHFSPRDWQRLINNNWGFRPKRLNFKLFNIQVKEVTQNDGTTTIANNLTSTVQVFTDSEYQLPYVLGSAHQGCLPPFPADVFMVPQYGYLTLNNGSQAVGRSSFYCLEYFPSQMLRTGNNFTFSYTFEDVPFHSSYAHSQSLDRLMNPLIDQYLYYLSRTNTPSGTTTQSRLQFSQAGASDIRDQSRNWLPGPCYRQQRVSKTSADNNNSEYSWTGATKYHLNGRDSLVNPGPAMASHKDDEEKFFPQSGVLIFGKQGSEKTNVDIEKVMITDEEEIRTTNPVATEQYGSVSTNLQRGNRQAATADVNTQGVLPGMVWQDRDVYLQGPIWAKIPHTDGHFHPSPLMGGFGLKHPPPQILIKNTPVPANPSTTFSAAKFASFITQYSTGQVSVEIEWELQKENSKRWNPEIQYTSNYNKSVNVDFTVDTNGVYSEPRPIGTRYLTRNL
T1 sequence (P03135 203-735, chain 3 of 3): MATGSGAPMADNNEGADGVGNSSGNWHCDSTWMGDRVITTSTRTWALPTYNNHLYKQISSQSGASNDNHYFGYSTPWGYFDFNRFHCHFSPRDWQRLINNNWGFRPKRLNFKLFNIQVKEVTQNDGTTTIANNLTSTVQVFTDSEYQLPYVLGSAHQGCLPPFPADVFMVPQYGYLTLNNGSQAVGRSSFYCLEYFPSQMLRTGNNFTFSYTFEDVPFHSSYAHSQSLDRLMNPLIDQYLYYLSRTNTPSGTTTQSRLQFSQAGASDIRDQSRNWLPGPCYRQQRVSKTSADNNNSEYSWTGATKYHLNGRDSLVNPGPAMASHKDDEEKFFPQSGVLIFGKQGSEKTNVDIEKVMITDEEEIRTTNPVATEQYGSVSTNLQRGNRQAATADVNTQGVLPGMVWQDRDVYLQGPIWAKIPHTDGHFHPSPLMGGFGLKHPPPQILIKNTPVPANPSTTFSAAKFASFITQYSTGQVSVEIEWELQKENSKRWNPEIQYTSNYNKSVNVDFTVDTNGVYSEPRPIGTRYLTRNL
recorded-metric: Residual activity after heat treatment [%] (%)
Give a bare numeral; the unit % is implied.

Entry AVR4d (Tyr342Cys, Gly390Ser, Ser476Arg, Asn487Asp) (receptor) MGSAGESVQITLPKNEVQLNAYVLQEPPKGETCTYDWQLITHPRDYSGEMEGKHSQILKLSKLTPGLYEFKVIVEGQNAHSEGYVNVTVKPEPRKNRPPIAIVSPQFQEISLPTTSTVIDGSQSTDDDKIVQYHWEELKGPLREEKISEDTAILKLSKLVPGNYTFRLTVVDSDGATDSTTANLTVNKAVDHHHHHH , Residual activity after heat treatment [%] reported as 18
